All values here come from the supplement of paper PMC6089552.

# Test system: A673/TR/shEF
# test.protocol: cell viability (LOESS-normalised, relative to median of negative controls) (log2 ratio); higher = more viable cells (less compound effect), active = hit call of the paper (over 3 MAD below the median)
# assay.context: 2.5 µM; library screen: screen2; EWS-FLI1 expression: low (doxycycline-induced shRNA knockdown); treatment time: 72 h
Screen size: about 3,200 compounds; about 300 (9.4%) showed activity. The sample as a whole holds a higher share of actives than the screen did.
Classes used: 1.0 = active, 0.0 = inactive

C#CCN(C)Cc1ccccc1; 1.0
CN1C[C@H](O)[C@@H](O)[C@H](O)[C@H]1CO; 0.0
C#CCN(C)CCCOc1ccc(Cl)cc1Cl; 0.0
O[Si](CCCN1CCCCC1)(c1ccc(F)cc1)C1CCCCC1 (configuration not stated); 0.0
NCCCCCC(=O)O; 0.0
CC(=O)O[C@H]1CC2(C)[C@@H](C[C@@H](O)[C@H]3[C@@]4(C)CC[C@@H](O)[C@@H](C)[C@@H]4CC[C@@]32C)/C1=C(/CCC=C(C)C)C(=O)O (some centres not stated); 0.0
CCc1nc(N)nc(N)c1-c1ccc(Cl)cc1; 0.0
CCCN(CCC)CCc1cccc2c1CC(=O)N2; 1.0
CN=c1nc(C2C=CC=CC2)n(C2C=CC=CC2)s1 (configuration not stated); 0.0
CCCCCCCC/C=C\CCCCCCCC(=O)O; 0.0
Nc1ccc(S(=O)(=O)Nc2ccnn2-c2ccccc2)cc1; 1.0
NCCCC(=O)O; 0.0

====

# Test system: A673/TR/shEF
# test.protocol: cell viability (LOESS-normalised, relative to median of negative controls) (log2 ratio); higher = more viable cells (less compound effect), active = hit call of the paper (over 3 MAD below the median)
# assay.context: 8.3 µM; library screen: screen3; EWS-FLI1 expression: high (no doxycycline); treatment time: 72 h
Among all 3,200 compounds or so, about 300 (9.4%) showed activity. This excerpt belongs to a sample that is enriched for actives.
// map cell viability (log2) onto a label; ranges class 1 (below -0.4), class 2 (-0.4 to below 0.05), class 3 (0.05 or more)

CCC(C)[C@H]1O[C@]2(CC[C@@H]1C)CC1C[C@@H](C/C=C(\C)[C@@H](O[C@H]3C[C@H](OC)[C@@H](OC4C[C@H](OC)[C@@H](O)[C@H](C)O4)[C@H](C)O3)[C@@H](C)/C=C/C=C3\CO[C@@H]4[C@H](O)C(C)=C[C@@H](C(=O)O1)[C@]34O)O2.CO[C@H]1CC(O[C@H]2[C@H](C)O[C@@H](O[C@@H]3/C(C)=C/C[C@@H]4CC(C[C@]5(CC[C@H](C)[C@@H](C(C)C)O5)O4)OC(=O)[C@@H]4C=C(C)[C@@H](O)[C@H]5OC/C(=C\C=C\[C@@H]3C)[C@]54O)C[C@@H]2OC)O[C@@H](C)[C@@H]1O (stereo not given in full); class 2
CNC(=O)CN(CCN(CCN(CC(=O)[O-])CC(=O)NC)CC(=O)[O-])CC(=O)[O-].O.[Gd+3]; class 3
Nc1ccn([C@@H]2O[C@H](CO)[C@@H](O)[C@@H]2O)c(=O)n1; class 1
COC(=O)Nc1ccc(-c2nc(N3CCOCC3)c3cnn(C4CCN(C(=O)OC)CC4)c3n2)cc1; class 1
OCC1OC(O)C(O)C(O)C1O (stereo not given); class 2
COC(=O)Nc1ccc(-c2nc(N3CCOCC3)c3cnn(C4CCN(Cc5cccnc5)CC4)c3n2)cc1; class 1
Oc1ccc([C@@H]2Oc3ccc(O)cc3[C@@H]3CCC[C@@H]32)cc1; class 2
NC(=O)c1ncn([C@@H]2O[C@H](CO)[C@@H](O)[C@H]2O)c1N; class 2
C=C1c2cccc(O)c2C(O)=C2C(=O)[C@]3(O)C(O)=C(C(N)=O)C(=O)[C@@H](N(C)C)[C@@H]3[C@@H](O)[C@H]12; class 2
CC1CC2C3CCC4=CC(=O)C=CC4(C)C3C(=O)CC2(C)[C@@]1(O)C(=O)CO (stereo not given in full); class 2
CCCCC1=NC2(CCCC2)C(=O)N1Cc1ccc(-c2ccccc2-c2nn[nH]n2)cc1; class 3
CN1CC[C@H](c2c(O)cc(O)c3c(=O)cc(-c4ccccc4Cl)oc23)[C@H](O)C1; class 1
CC[C@H](CO)Nc1nc(NCc2ccccc2)c2ncn(C(C)C)c2n1; class 3
CCCS(=O)(=O)Nc1ccc(F)c(C(=O)c2c[nH]c3ncc(-c4ccc(Cl)cc4)cc23)c1F; class 2
CN(C)c1ccc(C(=C2C=CC(=[N+](C)C)C=C2)c2ccc(N(C)C)cc2)cc1; class 1

====

Catalogue of cell viability (log2) readings, one per entry.
# Tested on: A673/TR/shEF
# test.protocol: cell viability (LOESS-normalised, relative to median of negative controls) (log2 ratio); higher = more viable cells (less compound effect), active = hit call of the paper (over 3 MAD below the median)
# assay.context: 0.25 µM; library screen: screen2; EWS-FLI1 expression: high (no doxycycline); treatment time: 72 h
Hit rate of the full screen: of about 3,200 compounds, about 300 (9.4%) showed activity. What follows is part of a selection rich in actives, with near analogues and random picks from the rest.
measured.property: cell viability (log2)

O=C(O)/C=C1/CCCc2ccccc2C1O (configuration not stated); 0.165
COc1cc2ncc(-c3ccccc3)nc2cc1OC; 0.139
Cc1c(OCC(F)(F)F)ccnc1C[S+]([O-])c1nc2ccccc2[nH]1 (configuration not stated); 0.166
CC(C)NC[C@H](O)c1ccc(O)c(O)c1; 0.15
Nc1nc(OCc2ccccc2)c2[nH]cnc2n1; 0.21
O=C(O)CCC(NC(=O)c1ccccc1C(=O)O)C(=O)O (configuration not stated); 0.0764
COc1ccccc1N(C(N)=O)c1nc(-c2cccnc2)nc2ccccc12; 0.155

====

Catalogue of cell viability (log2) readings, one per entry.
# System: A673/TR/shEF
# test.protocol: cell viability (LOESS-normalised, relative to median of negative controls) (log2 ratio); higher = more viable cells (less compound effect), active = hit call of the paper (over 3 MAD below the median)
# assay.context: 0.25 µM; library screen: screen1; EWS-FLI1 expression: low (doxycycline-induced shRNA knockdown); treatment time: 72 h
The campaign covered roughly 3,200 compounds. About 300 (9.4%) showed activity. What follows is part of a selection rich in actives, with near analogues and random picks from the rest.
measured.property: cell viability (log2)

CC1(C)COC(CC(=O)O)CN1 (centres undefined); 0.00312
CCCc1occc(=O)c1C=CO; 0.0143
O=C1C=CC(=C(c2ccc(O)cc2)c2ccc(O)cc2)C=C1; 0.0465
O=S(=O)(c1cccc2c(Cl)cccc12)N1CCCNCC1; -0.113
COC(=O)C1=C(C)N=c2s/c(=C/c3ccc(OC)cc3OC)c(=O)n2C1c1cccs1 (centres undefined); 0.13
Cc1c(O)c(C(=O)CC(C)C)c2oc3c(C(=O)CC(C)C)c(O)c(C)c(O)c3c2c1O; 0.0843
CC(=O)Nc1cccc(O)c1; 0.0568
CN=C(N)NCCCC(N)C(=O)O (centres undefined); 0.0246
CC(C)=CC1C(CO)C1(C)C (centres undefined); 0.00359
CN(C)c1ccc(C(=C2C=CC(=[N+](C)C)C=C2)c2ccc(N(C)C)cc2)cc1; 0.00922
CC(C(=O)O)c1ccc(C(=O)c2cccs2)cc1 (centres undefined); 0.0129
N/C(=N\S(=O)(=O)Cc1ccccc1)Nc1nc2ccccc2o1; 0.00923
COc1ccc(OC)c(CN2CCN(Cc3ccc(F)cc3)CC2)c1; 0.0528
[Cl][Pt+2][Cl].[NH2-].[NH2-]; 0.0806
Cc1nc(-c2ccc(NC(=O)c3ccccc3)cc2)cs1; 0.115
COC(=O)C[C@H]1C(C)(C)[C@@H](OC(C)=O)[C@@H]2CC3=C4CC(=O)O[C@@H](c5ccoc5)[C@]4(C)CC[C@@H]3[C@@]1(C)C2=O; 0.0144
O=C(NCO)c1cccnc1; 0.147
COC(=O)Nc1nc2ccc(C(=O)c3ccccc3)cc2[nH]1; 0.025
CC(C)=CCc1c(O)cc(C)oc1=O; -0.0147
NCC1OC(OC2C(N)CC(N)C(OC3OC(CO)C(O)C(N)C3O)C2O)C(O)C(O)C1O (centres undefined); -0.0254
COc1cc(CN2CCN(Cc3ccc([N+](=O)[O-])cc3)CC2)c([N+](=O)[O-])cc1OC; 0.09
CC(C(=O)O)c1cccc(C(=O)c2ccccc2)c1 (centres undefined); -0.0201
Cc1ccc(NC(=O)c2cccc(N(C)C)c2)cc1NC(=O)c1ccc(O)cc1; 0.139
COC(=O)Nc1nc2ccc(C(=O)c3cccs3)cc2[nH]1; -0.22

====

Catalogue of cell viability (log2) readings, one per entry.
# System: A673/TR/shEF
# test.protocol: cell viability (LOESS-normalised, relative to median of negative controls) (log2 ratio); higher = more viable cells (less compound effect), active = hit call of the paper (over 3 MAD below the median)
# assay.context: 2.5 µM; library screen: screen1; EWS-FLI1 expression: high (no doxycycline); treatment time: 72 h
Screen size: about 3,200 compounds; about 300 (9.4%) showed activity. Shown is part of a subset that was picked to be rich in actives.
measured.property: cell viability (log2)

CC(C)[C@@H]1CC[C@@H](C)CC1=O; 0.148
C=CC(=O)c1ccc2ccccc2c1; -0.264
Oc1cc(O)cc(/C=C/c2ccccc2)c1; 0.07
COc1cc(/C=C/CO)ccc1O; 0.0791
C=C1CC/C=C(/C)CC[C@@H]2[C@@H]1CC2(C)C; 0.165
CC1=C(O)C(=O)C(C(C)C)CC1 (configuration not stated); 0.0636
COc1cc(/C=C/C(=O)O)ccc1O; 0.12
O=C(/C=C/c1ccc(O)cc1O)c1ccccc1; 0.136
CN1CCN(c2nc3ccccn3c(=O)c2/C=C2\SC(=S)N(C)C2=O)CC1; 0.0372
CC1=C(C(=O)OCC2CCCO2)C(c2coc3ccccc3c2=O)C2=C(CCCC2=O)N1 (configuration not stated); 0.00147
COc1cc(OC)c(C2NC(=S)NC(C)=C2C(=O)Nc2ccccc2Cl)cc1OC (configuration not stated); 0.0303
CN1CCN(c2nc3ccccn3c(=O)c2/C=C2\SC(=S)N(CC3CCCO3)C2=O)CC1 (configuration not stated); 0.0647
